subject.of.test: CRF1R
test.protocol: cell-based or functional assay
Ends that are not written are not given here.
measurement.name: CRF1R EC50

Look at this binder and give its reported CRF1R EC50. IVLSLDVPIGLLQILLEQTKADAAREQATTNARILARV-NH2 [SEQ ID NO 108]
> 100 nM

Entry ZGPPISIDLPPYLLRKMIEIEKQEKEKQQAANNRLLLDTI (C-terminal amide) [SEQ ID NO 57] has what CRF1R EC50?
> 100 nM

Quick one: CRF1R EC50 of ZGPPISIDLSLELLRKMIEQARARAAREQATTNARILARV (C-terminal amide) [SEQ ID NO 156] ?
> 100 nM

Find the recorded CRF1R EC50 belonging to IVLSLDVPIGLLQILLEQTRADAAREQATTNARILARV-NH2 [SEQ ID NO 126] and report it.
> 100 nM

Reported CRF1R EC50, binder ZGPPISIDLPIFLLRKMIEIEKQEKEKQQAANNRLLLDTI (C-terminal amide) [SEQ ID NO 29] : ____
> 1000 nM
